- assay-summary: Phase 1b study in female adults with cystitis, plasma PK
- Type: in vivo, human
- conditions-used: female, human, plasma, oral, 450 mg, plasma, Day 5, PO450; read-out: Tmax, Median

{"compound": "CN(C)c1cc(CNCC(C)(C)C)c(O)c2c1C[C@H]1C[C@H]3[C@H](N(C)C)C(O)=C(C(N)=O)C(=O)[C@@]3(O)C(O)=C1C2=O [Compound 1]", "Tmax": "3.02 h"}

----------
- System: K. pneumoniae ESBL+
- assay-summary: In vitro MIC, 2010 surveillance isolates
- Format: cell-based, Klebsiella pneumoniae
- conditions-used: Asia/Pac; N=124

{"cpd-smiles": "CN(C)c1cc(NC(=O)CNC(C)(C)C)c(O)c2c1C[C@H]1C[C@H]3[C@H](N(C)C)C(O)=C(C(N)=O)C(=O)[C@@]3(O)C(O)=C1C2=O", "comparative-sign": "=", "MIC90 / µg/mL": 1}
{"cpd-smiles": "C[C@H]1c2cccc(O)c2C(=O)C2=C(O)[C@]3(O)C(=O)C(C(N)=O)=C(O)[C@@H](N(C)C)[C@@H]3[C@@H](O)[C@@H]21", "comparative-sign": ">", "MIC90 / µg/mL": 8}
{"cpd-smiles": "CN(C)c1cc(CNCC(C)(C)C)c(O)c2c1C[C@H]1C[C@H]3[C@H](N(C)C)C(O)=C(C(N)=O)C(=O)[C@@]3(O)C(O)=C1C2=O", "comparative-sign": "=", "MIC90 / µg/mL": 16}
{"cpd-smiles": "CO/N=C(\\C(=O)N[C@@H]1C(=O)N2C(C(=O)O)=C(CSc3nc(=O)c(=O)[nH]n3C)CS[C@H]12)c1csc(N)n1", "comparative-sign": ">", "MIC90 / µg/mL": 8}
{"cpd-smiles": "NCC[C@H](O)C(=O)N[C@@H]1C[C@H](N)[C@@H](O[C@H]2O[C@H](CN)[C@@H](O)[C@H](O)[C@H]2O)[C@H](O)[C@H]1O[C@H]1O[C@H](CO)[C@@H](O)[C@H](N)[C@H]1O", "comparative-sign": ">", "MIC90 / µg/mL": 32}

----------
- assay-summary: Phase 1b study in female adults with cystitis, plasma PK
- Format: in vivo, human
- conditions-used: female, human, plasma, oral, 450 mg, plasma, Day 1, PO450; read-out: AUC(0-12 hrs), Geo. Mean
quantity-measured: AUC(0-t)

{"cpd-smiles": "CN(C)c1cc(CNCC(C)(C)C)c(O)c2c1C[C@H]1C[C@H]3[C@H](N(C)C)C(O)=C(C(N)=O)C(=O)[C@@]3(O)C(O)=C1C2=O", "reported": "6690 ng·h/mL"}

----------
- assay-summary: Phase 1b study in female adults with cystitis, plasma PK
- Format: in vivo, human
- conditions-used: female, human, plasma, oral, 300 mg, plasma, Day 5, IV_PO300; read-out: Ctrough, Geo. Mean
quantity-measured: concentration at 5 day (ng/mL)

{"compound": "CN(C)c1cc(CNCC(C)(C)C)c(O)c2c1C[C@H]1C[C@H]3[C@H](N(C)C)C(O)=C(C(N)=O)C(=O)[C@@]3(O)C(O)=C1C2=O [Compound 1]", "quantity-measured": "concentration at 5 day", "reported": 214}

----------
Reported MIC90 values are given for each entry in this list.
- Test system: E. faecium VNS
- assay-summary: In vitro MIC, 2010 surveillance isolates
- Type: cell-based
- conditions-used: N America; N=478

{"cpd-smiles": "C[C@H]1COc2c(N3CCN(C)CC3)c(F)cc3c(=O)c(C(=O)O)cn1c23", "MIC90": "> 4 µg/mL"}
{"cpd-smiles": "CN(C)c1cc(CNCC(C)(C)C)c(O)c2c1C[C@H]1C[C@H]3[C@H](N(C)C)C(O)=C(C(N)=O)C(=O)[C@@]3(O)C(O)=C1C2=O", "MIC90": "0.25 µg/mL"}
{"cpd-smiles": "CO/N=C(\\C(=O)N[C@@H]1C(=O)N2C(C(=O)O)=C(CSc3nc(=O)c(=O)[nH]n3C)CS[C@H]12)c1csc(N)n1", "MIC90": "> 8 µg/mL"}
{"cpd-smiles": "C[C@H]1c2cccc(O)c2C(=O)C2=C(O)[C@]3(O)C(=O)C(C(N)=O)=C(O)[C@@H](N(C)C)[C@@H]3[C@@H](O)[C@@H]21", "MIC90": "> 8 µg/mL"}
{"cpd-smiles": "CN(C)c1cc(NC(=O)CNC(C)(C)C)c(O)c2c1C[C@H]1C[C@H]3[C@H](N(C)C)C(O)=C(C(N)=O)C(=O)[C@@]3(O)C(O)=C1C2=O", "MIC90": "0.25 µg/mL"}
{"cpd-smiles": "CN[C@H](CC(C)C)C(=O)N[C@H]1C(=O)N[C@@H](CC(N)=O)C(=O)N[C@H]2C(=O)N[C@H]3C(=O)N[C@H](C(=O)N[C@H](C(=O)O)c4cc(O)cc(O)c4-c4cc3ccc4O)[C@H](O)c3ccc(c(Cl)c3)Oc3cc2cc(c3O[C@@H]2O[C@H](CO)[C@@H](O)[C@H](O)[C@H]2O[C@H]2C[C@](C)(N)[C@H](O)[C@H](C)O2)Oc2ccc(cc2Cl)[C@H]1O", "MIC90": "> 16 µg/mL"}
